Kindly state GI50 for each of the entries shown.
Test system: PC-3
Assay: NCI tumour cell line growth inhibition, 48 h
The source made the active and inactive calls. Rule as the data show it: active = GI50 up to about 1.1 µM and inactive = higher.

Query string: Quote GI50 reported for N#CCCNCCN(CCN(C(=O)Nc1ccccc1)c1ccccc1)C(=O)Nc1ccccc1 please.
Result string: 57.3 µM (inactive)

Query string: Quote GI50 reported for CC1=CC(=O)CC(C)(C)C1(O)/C=C/C(C)=C/C(=O)O (centres undefined) please.
Result string: > 100 µM (inactive)

Query string: Quote GI50 reported for CC(NC(C#N)CC12CC3CC(CC(C3)C1)C2)c1ccccc1 (centres undefined) please.
Result string: > 100 µM (inactive)

Query string: Quote GI50 reported for COc1ccc(NC(C)=O)cc1N1C(=O)/C(=C\c2cccc(Oc3ccccc3)c2)S(=O)(=O)C1c1ccccc1 (centres undefined) please.
Result string: 36.6 µM (inactive)

Query string: Quote GI50 reported for COc1ccc([C@]23CCC4(OCC(C)(C)CO4)[C@H]4CON(O[C@H](O[C@@H]5CCCCC5C(C)(C)c5ccccc5)C2)[C@@H]43)cc1OC (some centres undefined) please.
Result string: 39.6 µM (inactive)

Query string: Quote GI50 reported for O=C1NC(S(=O)(=O)O)=NNC12c1ccccc1-c1ccccc12 please.
Result string: > 10 µM (inactive)

Query string: Quote GI50 reported for CN(C)c1ccc(N2C(=S)SC(=N\c3ccccc3)/C2=N/c2ccccc2)cc1 please.
Result string: 37.8 µM (inactive)

Query string: Quote GI50 reported for c1ccc(C(/C(=N/c2ccc(Cc3ccc(/N=C(\C(c4ccccc4)c4ccccc4)N4CC4)cc3)cc2)N2CC2)c2ccccc2)cc1 please.
Result string: 3.83 µM (inactive)

Query string: Quote GI50 reported for [N-]=[N+]=Nc1c(Cl)c(=O)n(-c2ccccc2)c2ccccc12 please.
Result string: 18.7 µM (inactive)
